- subject.of.test: T1, P4A-bP
- T1 chain: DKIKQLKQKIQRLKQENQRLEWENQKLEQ
- assay.protocol: two-hybrid library CCNG1;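 further: natural log of median RNA to DNA barcode read ratio; higher means stronger binding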
parameter.measured: interaction score

binder	value
DKIKQLKQKIQRLKQENQRLEWENQKLEQ [P4A-bP]	-1.09
DKNQELKKKNEELERKIWELEKEIQELER [4H4001-bH]	0.398
DKNKQLKQENQRLEQKIQRLKWKIQKLKQ [P10A-bP]	-0.87
DKNKQLKQKIQRLKQKIQRLKWENQKLEQ [P12A-bP]	-1.3

P: DEIKQLEQEIQRLEQKNQRLKWKNQKLKQ [P3A-bP]
Q: DENKQLEQEIQRLEQEIQRLEWKNQKLKQ [P11A-bP]
R: DKIKQLKQKNQRLKQKNQRLKWKIQKLKQ [P2A-bP]
S: DEIKQLEQENQRLEQENQRLEWEIQKLEQ [P1A-bP]
Reorder: interaction score, max to min. Write the labels, ordered according to the request.
P, Q, S, R
